# system tested: HLA-A*30:02 (Homo sapiens, UniProt P04439, D101N/D140H/D185E/E176R/F33S/G80R/H175R/K168Q/Q94H/R138E/R41S/V100E)
# Format: binding
# conditions: percent relative the binding of positive control peptide […]; duplicated experiments; positive binder >40%
# maps each entry to its Bind A*30:02
measure: Bind A*30:02

                     substance  observed_value
 0                   FLTSELPQW              3%
 1                   SAMILAAYH            111%
 2                   IVMPVGGQS             56%
 3  LVRAYHSMS [Rv0288_65–73m1]             30%
 4                   GNNSPAVYL              0%
 5                   SALLDPSQG             62%
 6                   AGGYKAADM             85%
 7                   DAYNAAGGH             18%
 8                   LAAYHPQQF             66%
 9                  TSELPQW LS              0%
10                   FIYAGSLSA             21%
11                   NAVFNFPPN             70%
12                  DW YSPACGK              0%
13                   DGLRAQDDY             58%
14                   MGDAGGYKA              0%
15                   SPACGKAGC              0%
16                   LSIVMPVGG             46%
17                  NGW DINTPA              0%
18   MYNYPTMLG [Rv0288_5–13m1]             23%
19   QIMYNYPTM [Rv0288_3–11m1]             23%
20                   NFPPNGTHS             43%
21                   VYCGNGTPN             80%
22                   KFQDAYNAA            113%
23                   AEFLENFVR              0%
24  RAYHSMSST [Rv0288_67–75m1]              7%
25                   AVKPTGSAA              7%
26                   PQWLSANRA             13%
27                   THSWEYWGA             67%
28                   SNLKFQDAY            124%
29                   LSMAGSSAM             79%
30                   SSFYSDWYS             72%
31                   NLKFQDAYN            123%
32                   GGHNAVFNF              0%
